biological target: CLK2 (Mus musculus); assay: radiometric protein kinase assay
Sequence (O35491 whole entry): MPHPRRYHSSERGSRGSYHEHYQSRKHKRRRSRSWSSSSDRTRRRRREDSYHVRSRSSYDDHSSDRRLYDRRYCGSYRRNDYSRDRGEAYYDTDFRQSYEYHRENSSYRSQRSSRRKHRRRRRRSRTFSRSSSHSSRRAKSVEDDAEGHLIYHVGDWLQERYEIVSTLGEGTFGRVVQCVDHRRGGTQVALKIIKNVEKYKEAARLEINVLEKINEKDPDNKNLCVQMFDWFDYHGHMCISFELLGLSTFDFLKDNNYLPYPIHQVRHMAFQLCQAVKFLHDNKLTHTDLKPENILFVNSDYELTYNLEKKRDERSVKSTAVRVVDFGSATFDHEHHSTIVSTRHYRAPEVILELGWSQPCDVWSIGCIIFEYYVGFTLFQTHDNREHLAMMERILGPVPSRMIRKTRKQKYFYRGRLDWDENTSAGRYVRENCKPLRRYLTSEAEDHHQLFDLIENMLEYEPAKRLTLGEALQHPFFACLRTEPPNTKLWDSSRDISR
Categories are assigned from the measured IC50 using these intervals: low value (below 0.2 µM), medium value (0.2 µM to below 0.4 µM), high value (0.4 µM or more)

# COMPOUND, CLASS_NAME
rows = [
    ("O=C1NCc2ccc3c(-c4cccc(O)c4)c[nH]c3c21", "low value"),
    ("O=C1NCc2ccc3c(-c4cccc([N+](=O)[O-])c4)c[nH]c3c21", "medium value"),
    ("O=C1NCc2ccc3c(-c4ccccc4)c[nH]c3c21", "medium value"),
    ("O=C1NCc2ccc3c(-c4ccc(Cl)cc4)c[nH]c3c21", "low value"),
    ("O=C1NCc2c(Cl)cc3c(-c4ccccc4)c[nH]c3c21 [12c]", "low value"),
    ("CN1Cc2ccc3c(-c4ccccc4)cn(C)c3c2C1=O [15e]", "high value"),
    ("COc1cccc(-c2c[nH]c3c4c(ccc23)CNC4=O)c1", "medium value"),
    ("O=C1NCc2c(-c3ccccc3F)cc3c(-c4ccccc4)c[nH]c3c21 [17b]", "high value"),
    ("Cn1cc(-c2ccccc2)c2ccc3c(c21)C(=O)NC3 [15a]", "high value"),
    ("O=C1NCc2ccc3c(-c4ccc(Cl)c(Cl)c4)c[nH]c3c21", "high value"),
]

* * *

molecular target: CLK1 (Mus musculus)
Sequence (P22518 whole entry): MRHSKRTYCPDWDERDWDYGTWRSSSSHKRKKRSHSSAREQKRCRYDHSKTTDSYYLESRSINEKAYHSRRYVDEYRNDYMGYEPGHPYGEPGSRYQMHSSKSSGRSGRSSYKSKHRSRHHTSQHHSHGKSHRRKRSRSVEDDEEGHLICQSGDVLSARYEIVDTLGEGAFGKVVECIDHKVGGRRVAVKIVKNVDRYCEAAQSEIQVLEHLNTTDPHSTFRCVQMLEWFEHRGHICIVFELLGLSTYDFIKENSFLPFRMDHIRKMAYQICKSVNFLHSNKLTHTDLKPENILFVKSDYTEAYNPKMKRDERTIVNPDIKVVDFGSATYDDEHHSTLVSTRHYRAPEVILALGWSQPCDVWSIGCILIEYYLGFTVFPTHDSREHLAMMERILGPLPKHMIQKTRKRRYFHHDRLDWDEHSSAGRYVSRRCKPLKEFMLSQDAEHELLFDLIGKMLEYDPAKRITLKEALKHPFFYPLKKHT
Criterion: IC50 strictly less than 90 nM. Met: T. Not met: F.

# COMPOUND, ASSAYED_TARGET, CLASS_NAME
measured = [
    ("NC(=O)Cn1cc(-c2ccccc2)c2ccc3c(c21)C(=O)NC3 [15c]", "CLK1 (Mus musculus)", "F"),
    ("Cn1cc(-c2ccccc2)c2ccc3c(c21)C(=O)NC3 [15a]", "CLK1 (Mus musculus)", "F"),
    ("O=C1NCc2ccc3c(-c4ccccc4)c(Br)[nH]c3c21", "CLK1 (Mus musculus)", "F"),
    ("O=C1NCc2ccc3c(-c4ccc(Cl)cc4)c[nH]c3c21", "CLK1 (Mus musculus)", "F"),
    ("COc1cccc(-c2c[nH]c3c4c(ccc23)CNC4=O)c1", "CLK1 (Mus musculus)", "F"),
    ("CC(=O)Oc1cccc(-c2c[nH]c3c4c(ccc23)CNC4=O)c1", "CLK1 (Mus musculus)", "F"),
    ("O=C1NCc2c(Br)cc3c(-c4ccccc4)c[nH]c3c21 [12a]", "CLK1 (Mus musculus)", "T"),
    ("CN1Cc2ccc3c(-c4ccccc4)c[nH]c3c2C1=O [12d]", "CLK1 (Mus musculus)", "F"),
    ("Cc1cccc(-c2c[nH]c3c4c(ccc23)CNC4=O)c1", "CLK1 (Mus musculus)", "T"),
    ("Cc1[nH]c2c3c(ccc2c1-c1ccccc1)CNC3=O", "CLK1 (Mus musculus)", "F"),
]

* * *

Target or system UniProt:Q13627; recorded quantity IC50.

# COMPOUND, IC50
records = [
    ("CN1Cc2ccc3c(-c4ccccc4)cn(C)c3c2C1=O [15e]", "> 10000 nM"),
    ("CCn1cc(-c2ccccc2)c2ccc3c(c21)C(=O)NC3 [15b]", "3900 nM"),
    ("O=C1NCc2ccc3c(-c4ccccc4Cl)c[nH]c3c21 [8b]", "1100 nM"),
    ("O=C1NCc2c(Br)cc3c(-c4ccccc4)c[nH]c3c21 [12a]", "200 nM"),
    ("CCOC(=O)Cn1cc(-c2ccccc2)c2ccc3c(c21)C(=O)NC3 [15d]", "> 10000 nM"),
    ("O=C1NCc2ccc3c(-c4ccccc4)c(Br)[nH]c3c21 [compound 16]", "1900 nM"),
    ("CN1Cc2ccc3c(-c4ccccc4)c[nH]c3c2C1=O [12d]", "> 10000 nM"),
    ("NC(=O)Cn1cc(-c2ccccc2)c2ccc3c(c21)C(=O)NC3 [15c]", "> 10000 nM"),
    ("Cc1cccc(-c2c[nH]c3c4c(ccc23)CNC4=O)c1 [8i]", "2600 nM"),
    ("O=C1NCc2c(-c3ccccc3F)cc3c(-c4ccccc4)c[nH]c3c21 [17b]", "> 10000 nM"),
    ("Cc1[nH]c2c3c(c(Br)cc2c1-c1ccccc1)CNC3=O [12b]", "110 nM"),
    ("O=C1NCc2ccc3c(-c4cccc(O)c4)c[nH]c3c21 [8g]", "740 nM"),
    ("CC(=O)Oc1cccc(-c2c[nH]c3c4c(ccc23)CNC4=O)c1 [8h]", "1400 nM"),
    ("O=C1NCc2ccc3c(-c4cccc([N+](=O)[O-])c4)c[nH]c3c21 [8j]", "> 10000 nM"),
    ("Cc1[nH]c2c3c(ccc2c1-c1ccccc1)CNC3=O [8k]", "1500 nM"),
    ("O=C1NCc2c(-c3cccc(F)c3)cc3c(-c4ccccc4)c[nH]c3c21 [17c]", "> 10000 nM"),
    ("CCc1[nH]c2c3c(ccc2c1-c1ccccc1)CNC3=O [8l]", "810 nM"),
    ("COc1cccc(-c2c[nH]c3c4c(ccc23)CNC4=O)c1 [8f]", "3800 nM"),
    ("Cn1cc(-c2ccccc2)c2ccc3c(c21)C(=O)NC3 [15a]", "> 10000 nM"),
    ("O=C1NCc2ccc3c(-c4ccc(Cl)cc4)c[nH]c3c21 [8d]", "> 10000 nM"),
    ("O=C1NCc2c(Cl)cc3c(-c4ccccc4)c[nH]c3c21 [12c]", "320 nM"),
    ("O=C1NCc2ccc3c(-c4cccc(Cl)c4)c[nH]c3c21 [8c]", "> 10000 nM"),
    ("O=C1NCc2ccc3c(-c4ccccc4)c[nH]c3c21 [8a]", "> 10000 nM"),
    ("O=C1NCc2ccc3c(-c4ccc(Cl)c(Cl)c4)c[nH]c3c21 [8e]", "> 10000 nM"),
    ("O=C1NCc2c(-c3ccccc3)cc3c(-c4ccccc4)c[nH]c3c21 [17a]", "> 10000 nM"),
]
